# Assay system: T1, TNFR1 (Homo sapiens, UniProt P19438)
# T1 chain: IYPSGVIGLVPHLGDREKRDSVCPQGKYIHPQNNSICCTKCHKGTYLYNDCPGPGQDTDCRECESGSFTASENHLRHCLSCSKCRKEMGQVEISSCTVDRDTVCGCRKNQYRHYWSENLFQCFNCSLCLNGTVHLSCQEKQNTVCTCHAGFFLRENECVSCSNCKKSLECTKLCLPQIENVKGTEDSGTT
# Experimental protocol: yeast display SC50
Can you tell me apparent Kd (screen) for the items I'm about to list?
Respond with the figure and its unit, in that order.

Which apparent Kd (screen) is listed for A94S (designed binder) MTLQELLREEALRRAEAEAFRYALELLAEKFPEQKEYLLDLAEEIESQIRSLSGVDVEDVRKFLDKEWAWVKELLAEHPAELAEVEAARAARLSELRAEVEAKVAA ?
0.593 nM

Which apparent Kd (screen) is listed for S51N (designed binder) MTLQELLREEALRRAEAEAFRYALELLAEKFPEQKEYLLDLAEEIESQIRNLSGVDVEDVRKFLDKEWAWVKELLAEHPAELAEVEAARAARLAELRAEVEAKVAA ?
1.69 nM

Which apparent Kd (screen) is listed for M1S (designed binder) STLQELLREEALRRAEAEAFRYALELLAEKFPEQKEYLLDLAEEIESQIRSLSGVDVEDVRKFLDKEWAWVKELLAEHPAELAEVEAARAARLAELRAEVEAKVAA ?
0.539 nM
